molecular target: human PF4 (Homo sapiens); construct: PF4 is a 70 amino acid, lysine-rich 7.8 kDa platelet-specific protein; made in house; host or cells: Escherichia coli BL21DE3 pLysS (pT7-7) and/or Drosophila S2 cells; assay: Inhibition of PF4 tetramer formation (BS3 cross-linking, SDS-PAGE); assay type: biochemical; settings: 1 μM inhibitor; read-out: % inhibition of PF4 tetramer formation at single concentration of inhibitor
Sequence (P02776 32-101): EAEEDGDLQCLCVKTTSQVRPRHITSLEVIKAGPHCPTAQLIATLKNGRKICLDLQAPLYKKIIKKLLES
experimentalEndpoint: inhibition at 1 µM

Problem: // returns reported inhibition at 1 µM for input C[C@H](NC(=O)C1C(=O)c2ccc(C(=O)c3ccc4c(c3)C(=O)C(C(=O)N[C@@H](C)C(=O)O)C4=O)cc2C1=O)C(=O)O (stereo partly drawn)
Result: 25%

Problem: Sample CC(C)OCC(=O)C1C(=O)c2ccc(S(=O)(=O)c3ccc4c(c3)C(=O)C(C(=O)COC(C)C)C4=O)cc2C1=O (stereo not drawn) — what was its inhibition at 1 µM?
Result: 43%

Problem: Report inhibition at 1 µM for O=C(NC1CCC1)C1C(=O)c2ccc(S(=O)(=O)c3ccc4c(c3)C(=O)C(C(=O)NC3CCC3)C4=O)cc2C1=O (stereo not drawn) please.
Result: 47%
